Test System: fMet-Leu-Phe receptor (Homo sapiens, UniProt P21462)
Sequence (P21462 whole entry): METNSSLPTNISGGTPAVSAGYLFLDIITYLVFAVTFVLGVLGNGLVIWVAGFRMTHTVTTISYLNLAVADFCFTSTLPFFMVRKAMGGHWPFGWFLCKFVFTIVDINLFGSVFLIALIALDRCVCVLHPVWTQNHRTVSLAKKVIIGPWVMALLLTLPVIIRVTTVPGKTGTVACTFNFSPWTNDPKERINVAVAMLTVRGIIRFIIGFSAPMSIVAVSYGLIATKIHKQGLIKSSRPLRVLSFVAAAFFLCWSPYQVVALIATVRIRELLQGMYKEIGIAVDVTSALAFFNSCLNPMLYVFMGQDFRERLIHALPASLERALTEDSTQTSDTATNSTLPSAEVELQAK
Assay Details: Agonist activity at FPR1 (unknown origin) transfected in CHO cells assessed as increase in calcium mobilization by Fluo-4AM dye based assay
Type: functional, cell-based
Readout Name: pEC50
Note: pEC50 values are expressed as the negative base-10 logarithm of concentration in M.

Ask: Report pEC50 for CC(C)C[C@H](NC(=O)CNC(=O)Nc1ccc(Br)cc1)C(=O)OC(C)(C)C
Reply: 5.64

---

Test System: UniProt:P25090
Assay Details: Agonist activity at FPR2 (unknown origin) in HEK293 cells
Type: functional, cell-based
Condition Notes: hek293
Readout Name: EC50 (nM)
Entry rule: numbers only, all in nM.

Ask: Enter EC50 (test system UniProt:P25090) for COc1cc(F)c(-n2c(C3CC(N)C3)cnc2NC(=O)c2ccc(OC(F)F)cc2)c(F)c1 (stereo unspecified)
Reply: 4

---

Attribute: bioavailability
Assay Details: Oral bioavailability in human at 1 mg/kg
Assay type: ADME, organism-based
Condition Notes: in vivo
Entry rule: numbers only, all in %.

INSERT INTO measurements (compound, units, quantitative_result) VALUES
  ('O=C(NCc1ccc(Br)cc1F)[C@@H]1C2CCC([C@H]1C(=O)NC1CCNCC1)C21CC1 (some centres not stated)', '%', 0.3);

Ask: Report bioavailability for O=C(NCc1ccc(Br)cc1F)[C@@H]1C2CCC([C@H]1C(=O)NC1CCNCC1F)C21CC1 (some centres not stated)
Reply: 12

---

Test System: fMet-Leu-Phe receptor (Homo sapiens)
Assay Details: Agonist activity at human FPR1 expressed in HL-60 cells assessed as increase in calcium mobilization by FLIPR analysis
Format: functional, cell-based
Readout Name: pEC50
Note: pEC50 values are expressed as the negative base-10 logarithm of concentration in M.

# count of solved cases: 5
INSERT INTO results (molecule, quantitative_result) VALUES
  ('C[C@@H]1CC(c2ccccc2)=NN(CC(=O)Nc2ccc(Br)cc2)C1=O', 4.62),
  ('COc1ccc(CC(Cc2ccc3c(c2)OCO3)NC(=O)Nc2ccc(Cl)cc2)cc1 (configuration not stated)', 6.96),
  ('COc1ccc(C2(CNC(=O)[C@@H](Cc3c[nH]c4ccccc34)NC(=O)Nc3ccc([N+](=O)[O-])cc3)CCCCC2)nc1', 7.64),
  ('C[C@H]1CC(c2ccccc2)=NN(CC(=O)Nc2ccc(Br)cc2)C1=O', 4.70),
  ('COc1ccc(C2(CNC(=O)[C@](C)(Cc3c[nH]c4ccccc34)NC(=O)Nc3ccc([N+](=O)[O-])cc3)CCCCC2)nc1', 6.52);

Ask: Report pEC50 for CCCc1cn(-c2cccc(OC)c2)c(=O)n(CC(=O)Nc2ccc(Br)cc2)c1=O
Reply: 5.48

Ask: Report pEC50 for COc1ccc(C2(CNC(=O)[C@H](Cc3c[nH]c4ccccc34)NC(=O)Nc3ccc([N+](=O)[O-])cc3)CCCCC2)nc1
Reply: 5.39

---

Test System: UniProtKB P25090
Assay Details: Agonist activity at human FPR2 expressed in HL-60 cells by Fluo4-AM dye based intracellular calcium flux assay
Assay type: functional, cell-based
Readout Name: EC50

Ask: Report EC50 for COc1cccc(Cc2cc(C)nn(CC(=S)Nc3ccccc3)c2=O)c1
Reply: > 50 µM

---

Attribute: pEC50
Test System: N-formyl peptide receptor 2 (Homo sapiens)
Assay Details: Agonist activity at FPR2 (unknown origin) expressed in CHO cells by cAMP assay
Format: functional, cell-based
Note: pEC50 values are expressed as the negative base-10 logarithm of concentration in M.

# count of solved cases: 5
INSERT INTO assay_data (molecule, quantitative_result) VALUES
  ('COc1ccc([C@@H]2COC(=O)[C@@H]2NC(=O)Nc2ccc(Cl)cc2)cc1 (racemic)', 9.60),
  ('COc1ccc([C@@H]2CN(CCO)C(=O)[C@H]2NC(=O)Nc2ccc(Cl)cc2)cc1', 11.00),
  ('COc1ccc(NC(=O)N[C@@H]2CCCN(c3ccc(-c4ccccc4C(N)=O)cc3)C2=O)cc1', 8.30),
  ('Cc1ccc(NC(=O)N[C@H]2CCCN(c3ccc(-c4ccccc4C(N)=O)cc3)C2=O)cc1', 7.40),
  ('COc1ccc([C@H]2CN(Cc3cnn(S(C)(=O)=O)c3)CC[C@@H]2NC(=O)Nc2ccc(Cl)cc2)cc1 (racemic)', 10.05);

// switching to the query molecule
Ask: Report pEC50 for NC(=O)c1ccccc1-c1ccc(N2CCC[C@H](NC(=O)Nc3ccc(Cl)cc3)C2=O)cc1
Reply: 8.30

---

Test System: fMet-Leu-Phe receptor (Homo sapiens)
Assay Details: Agonist activity at FPR1 (unknown origin) transfected in human HL60 cells assessed as calcium mobilization incubated for 30 mins and measured for 15 mins by fluorometry method
Type: functional, cell-based, HL-60
Readout Name: pEC50
Note: pEC50 values are expressed as the negative base-10 logarithm of concentration in M.

Ask: Report pEC50 for Ac-AMVSEFLKQAWIENEEQEYVVQTVK-OH
Reply: 5.85

---

Attribute: pEC50
Test System: UniProt:O88536
Sequence (O88536 whole entry): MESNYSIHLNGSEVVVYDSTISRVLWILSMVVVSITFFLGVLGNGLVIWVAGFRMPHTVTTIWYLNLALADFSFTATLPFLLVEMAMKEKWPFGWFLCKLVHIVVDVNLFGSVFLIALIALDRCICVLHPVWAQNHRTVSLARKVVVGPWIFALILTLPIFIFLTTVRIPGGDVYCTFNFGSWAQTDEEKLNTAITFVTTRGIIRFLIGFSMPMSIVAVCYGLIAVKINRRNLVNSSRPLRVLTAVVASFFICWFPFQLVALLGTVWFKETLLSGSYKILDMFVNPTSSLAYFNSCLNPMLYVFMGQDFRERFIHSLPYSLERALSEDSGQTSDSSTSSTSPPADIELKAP
Assay Details: Agonist activity at mouse FPR2
Where a SMILES comes first, the peptide text is derived from it. The star is where a group is joined. For = O=C*
Note: pEC50 values are expressed as the negative base-10 logarithm of concentration in M.

# count of solved cases: 3
INSERT INTO measurements (molecule, test_system, readout_name, quantitative_result) VALUES
  ('CSc1ccc(NC(=O)Nc2ccc3c(c2)C(=O)N(CCCN)C(C)C3)cc1 (centres undefined)', 'UniProt:O88536', 'pEC50', 7.82),
  ('CC[C@H](C)[C@H](NC(=O)[C@@H](NC(=O)[C@H](Cc1ccccc1)NC(=O)[C@H](CC(C)C)NC(=O)[C@H](CCSC)NC=O)[C@@H](C)CC)C(=O)O (For-MLFII-OH)', 'UniProt:O88536', 'pEC50', 6.04),
  ('O=C(O)[C@@H]1C2CCC([C@@H]1C(=O)Nc1ccc(Br)cc1)C21CC1 (some centres undefined)', 'UniProt:O88536', 'pEC50', 6.55);

// switching to the query molecule
Ask: Report pEC50 for CC(C)c1c(NC(=O)Nc2ccc(Cl)cc2)c(=O)n(-c2ccccc2)n1C
Reply: 6.05

---

Test System: N-formyl peptide receptor 2 (Homo sapiens, UniProt P25090)
Sequence (P25090 whole entry): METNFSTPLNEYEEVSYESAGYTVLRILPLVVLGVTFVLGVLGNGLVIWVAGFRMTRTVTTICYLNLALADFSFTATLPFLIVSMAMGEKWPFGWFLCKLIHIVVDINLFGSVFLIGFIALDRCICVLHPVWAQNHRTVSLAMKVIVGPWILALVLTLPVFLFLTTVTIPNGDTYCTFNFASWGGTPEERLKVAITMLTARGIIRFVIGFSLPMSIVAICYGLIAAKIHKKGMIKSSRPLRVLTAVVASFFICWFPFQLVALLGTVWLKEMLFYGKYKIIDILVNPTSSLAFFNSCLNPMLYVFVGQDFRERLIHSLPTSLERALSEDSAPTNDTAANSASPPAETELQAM
Assay Details: Agonist activity at human FPR2 expressed in HL-60 cells assessed as increase in calcium mobilization by FLIPR analysis
Type: functional, cell-based
Attribute: pEC50
Note: pEC50 values are expressed as the negative base-10 logarithm of concentration in M.

# count of solved cases: 2
INSERT INTO measurements (compound_string, readout_name, quantitative_result) VALUES
  ('C[C@@H]1CC(c2ccccc2)=NN(CC(=O)Nc2ccc(Br)cc2)C1=O', 'pEC50', 5.00),
  ('CCCc1cn(-c2cccc(OC)c2)c(=O)n(CC(=O)Nc2ccc(Br)cc2)c1=O', 'pEC50', 5.62);

Ask: Enter pEC50 (test system N-formyl peptide receptor 2 (Homo sapiens, UniProt P25090)) for C[C@H]1CC(c2ccccc2)=NN(CC(=O)Nc2ccc(Br)cc2)C1=O
Reply: 4.96

---

Test System: N-formyl peptide receptor 2 (Homo sapiens, UniProt P25090)
Assay Details: Agonist activity at human FPR2 expressed in HL-60 cells assessed as increase in calcium mobilization by FLIPR analysis
Type: functional, cell-based
Condition Notes: hl-60
Attribute: EC50
Entry rule: numbers only, all in nM.

INSERT INTO results (compound_string, units, quantitative_result) VALUES
  ('COc1cccc(-c2csc(=O)n2CC(=O)Nc2ccc(Br)cc2)c1', 'nM', 230);

// switching to the query compound
Ask: Report EC50 for COc1cccc(-c2cc(C#N)c(=O)n(CC(=O)Nc3ccc(Br)cc3)c2C)c1
Reply: 120

---

Test System: fMet-Leu-Phe receptor (Homo sapiens, UniProt P21462)
Assay Details: Agonist activity at human FPR1
Format: functional
Where a SMILES comes first, the peptide text is derived from it. The star is where a group is joined. For = O=C*
Readout Name: pEC50
Note: pEC50 values are expressed as the negative base-10 logarithm of concentration in M.

Ask: Enter pEC50 (test system fMet-Leu-Phe receptor (Homo sapiens, UniProt P21462)) for CC[C@H](C)[C@H](NC(=O)[C@@H](NC(=O)[C@H](Cc1ccccc1)NC(=O)[C@H](CC(C)C)NC(=O)[C@H](CCSC)NC=O)[C@@H](C)CC)C(=O)O (For-MLFII-OH)
Reply: 5.85
